test system: Streptococcus sp.; test: In vitro antibacterial evaluation: minimum inhibitory concentration (MIC), broth dilution method; format: cell-based; conditions: Streptococcus pyogenes (GC 4563); broth dilution, 18 hours at 35° C.
Field: MIC Streptococcus pyogenes (GC 4563). Provide a value for each of the molecules that follow.
Unit µg/mL implied. Number only.

Request the reported MIC Streptococcus pyogenes (GC 4563) associated with Cc1ccc(Oc2cccc(-c3nc4cc(CC5NC(=O)C(C(C)c6ccccc6)NC(=O)CNC(=O)C(CO)NC(=O)C(C(O)C6CNC(=N)N6C6OC(CO)C(O)C(O)C6O)NC(=O)C(C(O)C6CNC(=N)N6)NC5=O)ccc4o3)c2)cc1 (centres unmarked)
1

Request the reported MIC Streptococcus pyogenes (GC 4563) associated with CCCCCCN=C1NCC(C(O)C2NC(=O)C(C(O)C3CNC(=N)N3)NC(=O)C(Cc3ccc(OC4OC(CO)C(OC5OC6COC7(OC6C(O)C5O)C5CC6CC(C5)CC7C6)C(O)C4O)cc3)NC(=O)C(C(C)c3ccccc3)NC(=O)CNC(=O)C(CO)NC2=O)N1C1OC(CO)C(O)C(O)C1O (centres unmarked)
0.5
